Target: FPR1 (Homo sapiens (Human), UniProt P21462)
Sequence (P21462 whole entry): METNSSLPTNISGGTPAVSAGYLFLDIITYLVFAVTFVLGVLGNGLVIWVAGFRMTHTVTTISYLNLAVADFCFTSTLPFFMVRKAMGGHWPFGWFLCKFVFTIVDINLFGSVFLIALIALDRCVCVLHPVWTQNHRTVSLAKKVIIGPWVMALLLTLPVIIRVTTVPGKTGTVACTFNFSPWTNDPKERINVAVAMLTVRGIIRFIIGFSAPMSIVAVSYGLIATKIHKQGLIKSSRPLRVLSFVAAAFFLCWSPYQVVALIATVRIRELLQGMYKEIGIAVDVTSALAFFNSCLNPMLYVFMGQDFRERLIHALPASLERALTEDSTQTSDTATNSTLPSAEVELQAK
Experiment: Cyclic adenosine monophosphate (cAMP) assay, CHO-K1 cells stably overexpressing hFPR1
Format: cell-based
Conditions: 2.5 μM Forskolin and 0.25 nM WKYMVm (FPR1 agonist)
# IC50 per record follows

Previously resolved entries follow.
{"molecule": "C[C@H](NC(=O)c1c(NS(=O)(=O)c2ccc(Cl)cc2)c(C2CCOCC2)nn1C1CC1)C(C)(C)C [Compound 10]", "endpoint.label": "IC50", "endpoint.result": "> 25 µM"}
{"molecule": "Cc1ccc(S(=O)(=O)Nc2c(C3=CCC(C)(C)CC3)nn(C)c2C(=O)N[C@@H](C)C(C)(C)C)cc1 [Compound 18]", "endpoint.label": "IC50", "endpoint.result": "> 25 µM"}
{"molecule": "C[C@H](NC(=O)c1c(NS(=O)(=O)c2ccc(Cl)cc2)c(C2CCOCC2)nn1C)C(C)(C)C [Compound 9]", "endpoint.label": "IC50", "endpoint.result": "0.1 to 1 µM"}

# input for lookup
Q: Item C[C@H](NC(=O)c1c(NS(=O)(=O)c2ccc(C#N)cc2)c(-c2ccc(F)cc2)nn1C)C(C)(C)C [Compound 1] has what recorded IC50?
A: 0.1 to 1 µM

----------
# IC50 per record follows
Target: UniProt P21462
Experiment: Reactive oxygen species (ROS) assay in human neutrophils stimulated with fMLP
Assay type: cell-based
Details: human neutrophils from whole blood; fMLP (500 nM); DCFH-DA fluorescence; read-out: Anti-ROS IC50

{"molecule": "C[C@H](NC(=O)c1c(NS(=O)(=O)c2ccc(Cl)cc2)c(C2CCC(F)(F)CC2)nn1C)C(C)(C)C", "endpoint.result": "100 to 1000 nM"}
{"molecule": "CO[C@H]1CC[C@@H](c2nn(C)c(C(=O)N[C@@H](C)C(C)(C)C)c2NS(=O)(=O)c2ccc(C#N)cc2)CC1", "endpoint.result": "< 100 nM"}
{"molecule": "C[C@H](NC(=O)c1c(NS(=O)(=O)c2ccc(Cl)cc2)c(C2=CCC3(CC2)OCCO3)nn1C)C(C)(C)C", "endpoint.result": "1000 to 25000 nM"}
{"molecule": "C[C@H](NC(=O)c1c(NS(=O)(=O)c2ccc(C#N)cc2)c(-c2ccc(F)cc2)nn1C)C(C)(C)C", "endpoint.result": "100 to 1000 nM"}
{"molecule": "COCc1ccccc1-c1nn(C)c(C(=O)N[C@@H](C)C(C)(C)C)c1NS(=O)(=O)c1ccc(C)cc1", "endpoint.result": "100 to 1000 nM"}

Q: Item `CO[C@H]1CC[C@@H](c2nn(C)c(C(=O)N[C@@H](C)C(C)(C)C)c2NS(=O)(=O)c2ccc(C)cc2)CC1` has what recorded IC50?
A: < 100 nM

Q: Item COC1CC=C(c2nn(C)c(C(=O)N[C@@H](C)C(C)(C)C)c2NS(=O)(=O)c2ccc(Cl)cc2)CC1 (some centres unmarked) has what recorded IC50?
A: < 100 nM

Q: Item `C[C@H](NC(=O)c1c(NS(=O)(=O)c2ccc(Cl)cc2)c(C2CCOCC2)nn1C)C(C)(C)C` has what recorded IC50?
A: 100 to 1000 nM

----------
Biological target: UniProtKB P21462
Experiment: Cyclic adenosine monophosphate (cAMP) assay, CHO-K1 cells stably overexpressing hFPR1
Format: cell-based
Conditions: 2.5 μM Forskolin and 0.25 nM WKYMVm (FPR1 agonist)
endpoint.label: IC50

{"compound": "C[C@H](NC(=O)c1c(NS(=O)(=O)c2ccc(C#N)cc2F)c(-c2ccc(F)cc2)nn1C)C(C)(C)C [Compound 28]", "IC50": "100 to 1000 nM"}
{"compound": "Cc1ccc(S(=O)(=O)Nc2c(C3=CCOCC3)nn(C)c2C(=O)N[C@@H](C)C(C)(C)C)cc1 [Compound 16]", "IC50": "1000 to 25000 nM"}
{"compound": "CO[C@H]1CC[C@@H](c2nn(C)c(C(=O)N[C@@H](C)C(C)(C)C)c2NS(=O)(=O)c2ccc(Cl)cc2)CC1 [Compound 19]", "IC50": "100 to 1000 nM"}

Q: Item C[C@H](NC(=O)c1c(NS(=O)(=O)c2ccc(C3CC3)cc2)c(-c2ccc(F)cc2)nn1C)C(C)(C)C [Compound 26] has what recorded IC50?
A: 1000 to 25000 nM

Q: Item C[C@H](NC(=O)c1c(NS(=O)(=O)c2ccc(Cl)cc2)c(C2CCC(F)(F)CC2)nn1C)C(C)(C)C [Compound 37] has what recorded IC50?
A: 100 to 1000 nM

Q: Item C[C@H](NC(=O)c1c(NS(=O)(=O)c2ccc(C#N)cc2)c(-c2ccc(F)cc2F)nn1C)C(C)(C)C [Compound 41] has what recorded IC50?
A: 100 to 1000 nM

Q: Item COCc1cncc(-c2nn(C)c(C(=O)N[C@@H](C)C(C)(C)C)c2NS(=O)(=O)c2ccc(Cl)cc2)c1 [Compound 40] has what recorded IC50?
A: 1000 to 25000 nM

Q: Item C[C@H](NC(=O)c1c(NS(=O)(=O)c2ccc(Cl)cc2)c(C2CCC3(CC2)OCCO3)nn1C)C(C)(C)C [Compound 23] has what recorded IC50?
A: 1000 to 25000 nM

Q: Item Cc1ccc(S(=O)(=O)Nc2c(C3=CCC(C#N)CC3)nn(C)c2C(=O)N[C@@H](C)C(C)(C)C)cc1 (some centres unmarked) [Compound 32] has what recorded IC50?
A: 1000 to 25000 nM

Q: Item COCc1ncccc1-c1nn(C)c(C(=O)N[C@@H](C)C(C)(C)C)c1NS(=O)(=O)c1ccc(C#N)cc1 [Compound 42] has what recorded IC50?
A: > 25000 nM

Q: Item C[C@H](NC(=O)c1c(NS(=O)(=O)c2ccc(Cl)cc2)c(-c2ccc(F)cc2)nn1C)C(C)(C)C [Compound 38] has what recorded IC50?
A: 100 to 1000 nM

Q: Item C[C@H](NC(=O)c1c(NS(=O)(=O)c2ccc(C#N)cc2)c(C2CCOCC2)nn1C)C(C)(C)C [Compound 25] has what recorded IC50?
A: 100 to 1000 nM

Q: Item C[C@H](NC(=O)c1c(NS(=O)(=O)c2ccc(Cl)cc2)c(-c2ccccc2C(F)F)nn1C)C(C)(C)C [Compound 39] has what recorded IC50?
A: 100 to 1000 nM

Q: Item Cc1ccc(S(=O)(=O)Nc2c(-c3cccc(OC(F)(F)F)c3)nn(C)c2C(=O)N[C@@H](C)C(C)(C)C)cc1 [Compound 34] has what recorded IC50?
A: > 25000 nM

----------
Molecular target: FPR1 (Homo sapiens (Human), UniProt P21462)
Assay: Cyclic adenosine monophosphate (cAMP) assay, CHO-K1 cells stably overexpressing hFPR1
Type: cell-based
Conditions: 2.5 μM Forskolin and 0.25 nM WKYMVm (FPR1 agonist)
Procedure: Cyclic Adenosine Monophosphate (cAMP) Assay CHO-K1 cells stably overexpressing hFPR1 were plated into 384-well cell culture plates (2,000/well/5 μL) in 1× Stimulation Buffer (LANCE Ultra cAMP Kit, Perkin Elmer, TRF0263). 1 μL compound solution (prepared in ddH2O containing 0.2% DMSO) was added to each well. […] Fluorescence emission at 665 nm and 620 nm from the samples was measured by a Perkin Elmer Envision instrument. […]
endpoint.label: IC50

Previously resolved entries follow.
{"molecule": "C[C@H](NC(=O)c1c(NS(=O)(=O)c2ccc(C#N)cc2)c(C2=CCC(F)(F)CC2)nn1C)C(C)(C)C [Compound 43]", "IC50": "1000 to 25000 nM"}
{"molecule": "C[C@H](NC(=O)c1noc(C2CCOCC2)c1NS(=O)(=O)c1ccc(Cl)cc1)C(C)(C)C [Compound 11]", "IC50": "> 25000 nM"}
{"molecule": "C[C@H](NC(=O)c1c(NS(=O)(=O)c2ccc(Cl)cc2)c(-c2ccncc2)nn1C)C(C)(C)C [Compound 5]", "IC50": "> 25000 nM"}

Q: Item COCc1ccccc1-c1nn(C)c(C(=O)N[C@@H](C)C(C)(C)C)c1NS(=O)(=O)c1ccc(C)cc1 [Compound 33] has what recorded IC50?
A: 100 to 1000 nM

Q: Item C[C@H](NC(=O)c1c(NS(=O)(=O)c2ccc(C#N)cc2)c(C2CCC(F)(F)CC2)nn1C)C(C)(C)C [Compound 44] has what recorded IC50?
A: 100 to 1000 nM

----------
Biological target: FPR1 (Homo sapiens (Human))
Assay: Reactive oxygen species (ROS) assay in human neutrophils stimulated with fMLP
Assay type: cell-based
Conditions: human neutrophils from whole blood; fMLP (500 nM); DCFH-DA fluorescence; read-out: Anti-ROS IC50
# IC50 per record follows

{"mol": "COCc1ncccc1-c1nn(C)c(C(=O)N[C@@H](C)C(C)(C)C)c1NS(=O)(=O)c1ccc(C#N)cc1", "endpoint.result": "> 25000 nM"}

Q: Item `C[C@H](NC(=O)c1c(NS(=O)(=O)c2ccc(C#N)cc2)c(C2=CCC(F)(F)CC2)nn1C)C(C)(C)C` has what recorded IC50?
A: 100 to 1000 nM

Q: Item `Cc1ccc(S(=O)(=O)Nc2c(C3=CCOCC3)nn(C)c2C(=O)N[C@@H](C)C(C)(C)C)cc1` has what recorded IC50?
A: 100 to 1000 nM

Q: Item `CO[C@H]1CC[C@@H](c2nn(C)c(C(=O)N[C@@H](C)C(C)(C)C)c2NS(=O)(=O)c2ccc(C3CC3)cc2)CC1` has what recorded IC50?
A: < 100 nM

Q: Item `CO[C@H]1CC[C@@H](c2nn(C)c(C(=O)N[C@@H](C)C(C)(C)C)c2NS(=O)(=O)c2ccc(Cl)cc2)CC1` has what recorded IC50?
A: < 100 nM

Q: Item `C[C@H](NC(=O)c1c(NS(=O)(=O)c2ccc(Cl)cc2)c(-c2ccccc2C(F)F)nn1C)C(C)(C)C` has what recorded IC50?
A: 100 to 1000 nM
